Tested on: K-562 leukemia
Measurement notes: NCI-60 one-dose screen, 48 h
Run conditions: 10 µM unless noted
The panel holds about 83,000 compounds, 20% with a hit somewhere; the sample as a whole holds those more often. The source made the active and inactive calls. Rule for the calls: active = growth percent below 10; inactive = the rest.
Outcomes: YES (active), NO (inactive)

{"Molecule": "Clc1ccc2c(c1)c(-c1ccccc1)nc1nncn12", "Group": "NO"}
{"Molecule": "COc1ccc2c(c1)c(CC(=O)NCCOCCOCC(=O)Nc1ccc(OC)c(C(N)=O)c1O)c(C)n2C(=O)c1ccc(Cl)cc1", "Group": "NO"}
{"Molecule": "NC(=O)C1(N2CCCCC2)CCN(CCCC(=O)c2ccc(F)cc2)CC1", "Group": "NO"}
{"Molecule": "COc1cc(-c2cc(=O)oc3cc(O)ccc23)cc(OC)c1OC", "Group": "NO"}
{"Molecule": "N#Cc1c(Nc2ccccc2)nn2cc(-c3nc4ccccc4s3)c(N)nc12", "Group": "NO"}
{"Molecule": "C=C(C)[C@@H]1CC[C@]2(C(=O)NCC(=O)OC)CC[C@]3(C)[C@H](CC[C@@H]4[C@@]5(C)Cc6c([nH]c7ccccc67)C(C)(C)[C@@H]5CC[C@]43C)[C@@H]12", "Group": "NO"}
{"Molecule": "O=C1CCC(NC(=S)Nc2ccccc2)N1 (stereo unspecified)", "Group": "NO"}
{"Molecule": "c1ccc(CCSc2ncnc3nc[nH]c23)cc1", "Group": "NO"}
{"Molecule": "FC(F)(F)c1cccc(Nc2ccccc2)c1", "Group": "NO"}
{"Molecule": "Clc1nc(Cl)c2ncn(CCOCCn3cnc4c(Cl)nc(Cl)nc43)c2n1", "Group": "YES"}
{"Molecule": "CCCCCOc1ccc(/C=N/Nc2cc(C)nc3ccc(Br)cc23)cc1", "Group": "YES"}
{"Molecule": "COc1cccc(CCC(=O)c2cc3c(N)c(C(=O)Nc4ccccc4)sc3nc2C)c1", "Group": "NO"}
{"Molecule": "COc1ccc(Nc2nc(N)nc3c2CCc2occc2-3)cc1", "Group": "NO"}
{"Molecule": "O=C(OCc1nc2nc(Cl)nc(N3CCOCC3)c2[nH]1)n1ccnc1", "Group": "YES"}
{"Molecule": "CCNNC(=O)[C@@H]1[C@H](c2cc(OC)c(OC)c(OC)c2)c2cc3c(cc2[C@H](O)[C@H]1CO)OCO3", "Group": "NO"}
{"Molecule": "Clc1cc(Cl)cc(N2N=C(c3cccc(Nc4ccncc4)c3)CC2c2ccccc2)c1 (stereo unspecified)", "Group": "YES"}

* * *

System: SF-295 CNS
Measurement notes: NCI-60 one-dose screen, 48 h (100 = growth as untreated, 0 = no growth, -100 = all killed)
Run conditions: 10 µM unless noted
About 83,000 compounds went through this panel and 20% of them were active in at least one assay; those are over-represented in the sample as a whole.
Measurement kind: growth (%)

{"Molecule": "COc1cc2ncnc(Nc3ccc(C(=O)/C=C/c4ccc(C(F)(F)F)cc4F)cc3)c2cc1OC", "Assayed system": "SF-295 CNS", "Measurement kind": "growth", "Result value": 95.8}
{"Molecule": "O=C(O)/C=C\\C(=O)N1C/C(=C\\c2ccccc2Cl)C(=O)/C(=C/c2ccccc2Cl)C1", "Assayed system": "SF-295 CNS", "Measurement kind": "growth", "Result value": -13}
{"Molecule": "Cc1[nH]n(-c2cccc(Cl)c2)c(=O)c1/C=C1\\C=Nc2ccc(Br)cc21", "Assayed system": "SF-295 CNS", "Measurement kind": "growth", "Result value": 31.3}
{"Molecule": "NS(=O)(=O)c1cccc(NC(=O)C(=O)C2C(=O)Nc3ccccc32)c1 (stereo unspecified)", "Assayed system": "SF-295 CNS", "Measurement kind": "growth", "Result value": 94.2}
{"Molecule": "COc1ccc(C2CC(c3cccc(Nc4ccncc4)c3)=NN2c2cc(Cl)cc(Cl)c2)cc1 (stereo unspecified)", "Assayed system": "SF-295 CNS", "Measurement kind": "growth", "Result value": 72.4}
{"Molecule": "CCn1ccnc1C(=O)/C=C/c1ccc(CC(=O)Nc2ccc(F)cc2)cc1", "Assayed system": "SF-295 CNS", "Measurement kind": "growth", "Result value": 22.2}
{"Molecule": "O=C(N/N=C/c1ccc(F)cc1)c1ccccc1Nc1cccc(C(F)(F)F)c1", "Assayed system": "SF-295 CNS", "Measurement kind": "growth", "Result value": 121}
{"Molecule": "O=C(N/N=C/c1cccnc1)c1ccccc1Nc1cccc(C(F)(F)F)c1", "Assayed system": "SF-295 CNS", "Measurement kind": "growth", "Result value": 64.7}
{"Molecule": "NC(=O)c1cccc(-c2ccccc2N2CCCCC2)c1", "Assayed system": "SF-295 CNS", "Measurement kind": "growth", "Result value": 89.4}
{"Molecule": "S=c1[nH]cccc1-c1nnc2n1Nc1nc3ccccc3cc1CS2", "Assayed system": "SF-295 CNS", "Measurement kind": "growth", "Result value": 112}
{"Molecule": "CC(N)C(=O)NNc1n[nH]c(=S)n1N (stereo unspecified)", "Assayed system": "SF-295 CNS", "Measurement kind": "growth", "Result value": 94.7}
{"Molecule": "CCCCCCN(C)Cc1ccc(OCCOc2ccc(CN(C)CCCCCC)cc2)cc1", "Assayed system": "SF-295 CNS", "Measurement kind": "growth", "Result value": -51.9}
{"Molecule": "COc1ccc(-c2nc(N=Nc3c(O)[nH]c4ccccc34)nc(N3CCOCC3)c2C#N)cc1", "Assayed system": "SF-295 CNS", "Measurement kind": "growth", "Result value": 86.4}
{"Molecule": "COc1cccc(CCC(=O)c2cc3c(N)c(C(=O)Nc4ccccc4)sc3nc2C)c1", "Assayed system": "SF-295 CNS", "Measurement kind": "growth", "Result value": 24.9}
{"Molecule": "c1ccc(-c2nnc(Nc3ccc4c(c3)OCCO4)o2)c(NCc2ccncc2)c1", "Assayed system": "SF-295 CNS", "Measurement kind": "growth", "Result value": 3.68}
{"Molecule": "COc1cc2nc(-c3ccc(-c4nn[nH]n4)cc3)[nH]c(=O)c2cc1OC", "Assayed system": "SF-295 CNS", "Measurement kind": "growth", "Result value": 122}
{"Molecule": "CCOC(=O)c1c(O)cc(-c2ccccc2)cc1-c1sc(N(C)Cc2ccccc2)nc1Cl", "Assayed system": "SF-295 CNS", "Measurement kind": "growth", "Result value": 99.6}
{"Molecule": "C[C@H]1[C@H](C)CC[C@]2(CO)CC[C@]3(C)C(=CC[C@@H]4[C@@]5(C)Cc6c([nH]c7ccccc67)C(C)(C)[C@@H]5CC[C@]43C)[C@H]12", "Assayed system": "SF-295 CNS", "Measurement kind": "growth", "Result value": 81.2}
{"Molecule": "COc1cc(C2NC(c3cc(OC)c(OC)c(OC)c3)C(C#N)(C#N)C2(C#N)C#N)cc(OC)c1OC (stereo unspecified)", "Assayed system": "SF-295 CNS", "Measurement kind": "growth", "Result value": 99.8}
{"Molecule": "O=S(=O)(NCCCNc1nccc(-c2c(-c3ccc(F)c(O)c3)nc3sccn23)n1)c1ccc(F)cc1", "Assayed system": "SF-295 CNS", "Measurement kind": "growth", "Result value": -12.1}
{"Molecule": "CC(=O)NCCCS(=O)(=O)O", "Assayed system": "SF-295 CNS", "Measurement kind": "growth", "Result value": 94.6}
{"Molecule": "C/C(=C(/c1ccccc1)c1ccc(OCC(O)CNCCN2CCOCC2)cc1)c1ccccc1 (stereo unspecified)", "Assayed system": "SF-295 CNS", "Measurement kind": "growth", "Result value": 71.2}
{"Molecule": "COc1cc(NCCCN(CC(C)C)CC(C)C)c2ncccc2c1", "Assayed system": "SF-295 CNS", "Measurement kind": "growth", "Result value": 89.4}
{"Molecule": "CC(=O)Nc1ccc(C(=O)Nc2cc(-c3ccccc3)ccc2N)cc1", "Assayed system": "SF-295 CNS", "Measurement kind": "growth", "Result value": 58.7}
{"Molecule": "COc1ccc2c(Nc3ccc(NS(C)(=O)=O)cc3)c3ccccc3nc2c1", "Assayed system": "SF-295 CNS", "Measurement kind": "growth", "Result value": -27.9}
{"Molecule": "COc1ccc(Cc2nc3cc(OC)c(OC)cc3c(=O)[nH]2)cc1", "Assayed system": "SF-295 CNS", "Measurement kind": "growth", "Result value": 65.3}

* * *

Tested on: UACC-62 melanoma
Measurement notes: NCI-60 one-dose screen, 48 h (100 = growth as untreated, 0 = no growth, -100 = all killed)
Run conditions: 10 µM unless noted
Compounds without any hit were thinned out: in the full panel of roughly 83,000, 20% have a hit.
Decide by growth: equal to or exceeding 40% means Condition met, less means Condition not met.

{"Compound": "O=S(=O)(NCCCNc1nccc(-c2c(-c3cccc(O)c3)nc3occn23)n1)c1ccc(F)cc1", "Group": "Condition not met"}
{"Compound": "COc1ccc(C(O)c2cc3c(N)c(C(=O)Nc4ccc(Br)cc4)sc3nc2C)cc1 (configuration not stated)", "Group": "Condition not met"}
{"Compound": "COc1cc(Nc2cc(O)c3c(=O)cc(-c4ccccc4)oc3c2)cc(OC)c1", "Group": "Condition met"}
{"Compound": "Nc1nc(N)nc(NCc2ccccc2)n1", "Group": "Condition met"}
{"Compound": "CCC(C)C(N)C(=O)NNc1n[nH]c(=S)n1N (configuration not stated)", "Group": "Condition met"}
{"Compound": "COc1cccc(CNCCN2C(=O)c3ccc4c5c(ccc(c35)C2=O)C(=O)N(CCNCc2cccc(OC)c2)C4=O)c1", "Group": "Condition met"}
{"Compound": "COc1ccc(/C(=C\\c2ccccc2)C(=O)O)cc1OC", "Group": "Condition met"}
